- test-protocol: Pharmacokinetic properties in mice
- Format: in vivo, ICR mice
- reported-conditions: po 10 mg/kg, 5-1440 minutes
As shown below, each of these compounds has a reported AUClast (po) value.

Answered examples (4):
compound: O=c1ncn2nc(Oc3ccc(F)cc3F)ccc2c1-c1cc(Cl)ccc1Cl
AUClast (po): 4016 (h)*(ng/mL)
//
compound: O=c1ncn2nc(Oc3cc(F)c(F)cc3F)ccc2c1-c1c(Cl)cccc1Cl
AUClast (po): 6540 (h)*(ng/mL)
//
compound: O=c1ncn2nc(Oc3ccc(F)cc3)ccc2c1-c1c(Cl)cccc1Cl
AUClast (po): 11457 (h)*(ng/mL)
//
compound: O=c1ncn2nc(Oc3ccc(F)cc3F)ccc2c1-c1c(F)cccc1Cl
AUClast (po): 4522 (h)*(ng/mL)

GET /values?readout=AUClast (po)&item= O=c1ncn2nc(Sc3ccc(F)cc3F)ccc2c1-c1c(Cl)cccc1Cl [VX-745, reference compound]
1844 (h)*(ng/mL)

What AUClast (po) value was documented for this compound, `O=c1ncn2nc(Oc3ccc(F)cc3F)ccc2c1-c1c(Cl)cccc1Cl` ?
8944 (h)*(ng/mL)

Give its AUClast (po) value. Item: `Cc1ccccc1-c1c(=O)ncn2nc(Oc3ccc(F)cc3F)ccc12`
3107 (h)*(ng/mL)

---

- test-protocol: Pharmacokinetic properties in mice
- Type: in vivo, ICR mice
- reported-conditions: male, ICR, mouse, plasma, po 10 mg/kg
endpoint-name: Tmax (h)

Consider the following illustrative entries.
molecule: O=c1ncn2nc(Sc3ccc(F)cc3F)ccc2c1-c1c(Cl)cccc1Cl [VX-745, reference compound]
Tmax (h): 0.8

molecule: O=c1ncn2nc(Oc3cc(F)c(F)cc3F)ccc2c1-c1c(Cl)cccc1Cl
Tmax (h): 2

(I) O=c1ncn2nc(Oc3ccc(F)cc3F)ccc2c1-c1c(F)cccc1Cl
(II) O=c1ncn2nc(Oc3ccc(F)cc3F)ccc2c1-c1cc(Cl)ccc1Cl
I'd appreciate it if you could identify which of I and II has the greater Tmax. Your choice should be expressed through its label.
II

---

- measured-target: p38α (Homo sapiens, UniProt Q16539)
- Sequence (Q16539 whole entry): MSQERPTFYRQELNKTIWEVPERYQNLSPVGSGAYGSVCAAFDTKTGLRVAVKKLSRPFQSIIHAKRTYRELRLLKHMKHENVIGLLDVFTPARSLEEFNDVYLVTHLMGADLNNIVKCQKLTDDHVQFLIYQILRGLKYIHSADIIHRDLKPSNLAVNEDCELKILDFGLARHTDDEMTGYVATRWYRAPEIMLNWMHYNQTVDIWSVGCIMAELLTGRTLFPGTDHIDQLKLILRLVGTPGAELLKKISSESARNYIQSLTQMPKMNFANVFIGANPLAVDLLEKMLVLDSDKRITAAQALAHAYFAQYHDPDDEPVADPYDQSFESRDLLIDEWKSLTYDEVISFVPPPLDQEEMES
- test-protocol: In vitro inhibition of p38 kinase (LANCE Ultra TR-FRET)
- Assay type: biochemical
- reported-conditions: read-out: Kinase in vitro IC50(nM) p38α
endpoint-name: IC50 (nM)

given-smiles: CNC(=O)c1ccc(Cl)c(-c2c(=O)ncn3nc(Oc4ccc(F)cc4F)ccc23)c1
measurement-units: nM
IC50: 17.5
--
given-smiles: O=c1ncn2nc(Oc3cncc(F)c3)ccc2c1-c1c(Cl)cccc1Cl
measurement-units: nM
IC50: 1980
--
given-smiles: O=c1ncn2nc(Oc3ccc(F)cc3F)ccc2c1-c1c(F)cccc1F
measurement-units: nM
IC50: 14.1
--
given-smiles: O=c1ncn2nc(Oc3cc(Cl)ccc3Cl)ccc2c1-c1c(Cl)cccc1Cl
measurement-units: nM
IC50: 31.3
--
given-smiles: O=c1ncn2nc(Oc3cc(F)ccc3F)ccc2c1-c1c(Cl)cccc1Cl
measurement-units: nM
IC50: 27.7

(P) O=c1ncn2nc(Oc3ccc(F)cc3F)ccc2c1C1=CCCCC1
(Q) O=c1ncn2nc(Oc3ccc(F)cc3F)ccc2c1-c1cc(Cl)ccc1Cl
Which gives the smaller IC50 number: P or Q ? Which one? Tell me its label.
Q
(Q: 19.7 nM, P: 31 nM)

---

- measured-target: p38β (Homo sapiens, UniProt Q15759)
- Sequence (Q15759 whole entry): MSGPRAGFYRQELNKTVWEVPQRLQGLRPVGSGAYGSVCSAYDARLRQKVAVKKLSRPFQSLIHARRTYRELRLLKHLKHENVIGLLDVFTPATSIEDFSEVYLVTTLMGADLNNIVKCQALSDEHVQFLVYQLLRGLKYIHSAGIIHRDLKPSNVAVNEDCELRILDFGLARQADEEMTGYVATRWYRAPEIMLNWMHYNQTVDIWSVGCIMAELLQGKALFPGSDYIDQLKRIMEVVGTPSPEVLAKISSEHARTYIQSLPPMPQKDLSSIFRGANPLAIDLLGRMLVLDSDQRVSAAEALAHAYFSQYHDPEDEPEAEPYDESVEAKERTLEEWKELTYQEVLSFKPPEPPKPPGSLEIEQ
- test-protocol: In vitro inhibition of p38 kinase (LANCE Ultra TR-FRET)
- Assay type: biochemical
- reported-conditions: read-out: Kinase in vitro IC50(nM) p38β
endpoint-name: IC50

compound: CC(Oc1ccc2c(-c3c(Cl)cccc3Cl)c(=O)ncn2n1)c1ccc(F)cc1F (stereo not drawn)
IC50: > 3330 nM

Looking for the measured IC50 of `O=c1ncn2nc(OC3CCOCC3)ccc2c1-c1c(Cl)cccc1Cl` , can you help?
> 3330 nM

Fill in: IC50 of `O=c1ncn2nc(NC3CC(F)(F)C3)ccc2c1-c1c(Cl)cccc1Cl` is ___
> 3330 nM

---

- test-protocol: Pharmacokinetic properties in mice
- Type: in vivo, ICR mice
- reported-conditions: po 10 mg/kg vs iv 3 mg/kg
endpoint-name: BA (%)

given-smiles: Cc1ccccc1-c1c(=O)ncn2nc(Oc3ccc(F)cc3F)ccc12
BA, %: 84.9

(1) O=c1ncn2nc(Oc3cc(F)c(F)cc3F)ccc2c1-c1c(Cl)cccc1Cl
(2) O=c1ncn2nc(Oc3ccc(F)cc3F)ccc2c1-c1c(Cl)cccc1Cl
For the pair 1 and 2 , which entry has the numerically smaller recorded BA? Refer to your chosen item by its label in the answer.
2

---

- test-protocol: Pharmacokinetic properties in mice
- Format: in vivo, ICR mice
- reported-conditions: male, ICR, mouse, plasma, po 10 mg/kg
endpoint-name: Tmax (h)

given-smiles: O=c1ncn2nc(Oc3ccc(F)cc3)ccc2c1-c1c(Cl)cccc1Cl
Tmax, h: 1.33

(P) Cc1ccccc1-c1c(=O)ncn2nc(Oc3ccc(F)cc3F)ccc12
(Q) O=c1ncn2nc(Oc3ccc(F)cc3F)ccc2c1-c1c(Cl)cccc1Cl
Looking only at measured Tmax, which entry is lower, P or Q ? # reply format: chosen label
P
